Just for reference, ChEMBL document CHEMBL5252656 is where these values come from.

target: Furin (Homo sapiens); assay: Inhibition of human furin in human PANC-1 cells assessed as release of fluorescent AMC using Pyr-Arg-Thr-Arg-AMC as substrate preincubated for 30 mins followed by substrate addition by plate reader analysis; assay type: cell-based; set-up: concentration or dose not given beside the values
Bridge positions count the residues as written; N and C are the ends. Peptide text beside a SMILES is read from it.
measuredQuantity: inhibition (%)
Express it in %; write the number only.

Exercise: For CC[C@H](C)[C@@H]1NC(=O)[C@@H]2CCCN2C(=O)[C@@H]2CCCN2C(=O)[C@H]([C@@H](C)CC)NC(=O)[C@H](CO)NC(=O)[C@H](CCCCN)NC(=O)[C@H](CCCCN)NC(=O)[C@@H]2CSSC[C@H](NC1=O)C(=O)N[C@@H](Cc1ccccc1)C(=O)N[C@@H](CCCCN)C(=O)N[C@@H](CCCNC(=N)N)C(=O)N[C@@H](CCCNC(=N)N)C(=O)N2 (cyclo(KRRCKKSIPPICF); disulfide 4-12) , write its inhibition.
Solution: 64.8

* * *

Reported inhibition values are given for each entry in this list.
molecular target: Furin (Homo sapiens) (UniProt P09958); assay: Inhibition of human furin in human PANC-1 cells assessed as release of fluorescent AMC using Pyr-Arg-Thr-Arg-AMC as substrate preincubated for 30 mins followed by substrate addition by plate reader analysis; assay type: cell-based; parameters: concentration or dose not given beside the values
Sequence (P09958 whole entry): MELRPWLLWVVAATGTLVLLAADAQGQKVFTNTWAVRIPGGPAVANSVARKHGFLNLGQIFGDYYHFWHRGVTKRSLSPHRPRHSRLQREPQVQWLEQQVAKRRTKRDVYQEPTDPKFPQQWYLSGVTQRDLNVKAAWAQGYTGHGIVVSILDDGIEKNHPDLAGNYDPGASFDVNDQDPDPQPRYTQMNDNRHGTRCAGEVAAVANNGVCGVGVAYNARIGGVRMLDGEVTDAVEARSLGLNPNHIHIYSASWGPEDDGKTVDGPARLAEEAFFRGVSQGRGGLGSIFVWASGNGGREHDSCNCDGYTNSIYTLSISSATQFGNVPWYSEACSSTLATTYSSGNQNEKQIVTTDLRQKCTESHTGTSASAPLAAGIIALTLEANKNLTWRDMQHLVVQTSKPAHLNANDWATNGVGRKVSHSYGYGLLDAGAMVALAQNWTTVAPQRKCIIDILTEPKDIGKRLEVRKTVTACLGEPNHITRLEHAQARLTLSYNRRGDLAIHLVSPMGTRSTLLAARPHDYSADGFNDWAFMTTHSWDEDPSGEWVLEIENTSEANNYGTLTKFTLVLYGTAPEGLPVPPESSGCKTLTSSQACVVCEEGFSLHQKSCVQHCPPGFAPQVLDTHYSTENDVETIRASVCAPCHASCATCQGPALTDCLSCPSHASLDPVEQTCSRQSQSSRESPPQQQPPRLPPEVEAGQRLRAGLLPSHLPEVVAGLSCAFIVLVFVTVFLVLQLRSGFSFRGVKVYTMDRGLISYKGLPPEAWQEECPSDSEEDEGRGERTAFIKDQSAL
Bridge positions count the residues as written; N and C are the ends. Peptide text beside a SMILES is read from it.
Express it in %; write the number only.

* CC[C@H](C)[C@@H]1NC(=O)[C@@H]2CCCN2C(=O)[C@@H]2CCCN2C(=O)[C@H]([C@@H](C)CC)NC(=O)[C@H](CO)NC(=O)[C@H](CCCCN)NC(=O)[C@H](CCCCN)NC(=O)[C@@H]2CSSC[C@H](NC1=O)C(=O)N[C@@H](Cc1ccccc1)C(=O)N[C@@H](CCCNC(=N)N)C(=O)N[C@@H](CCCNC(=N)N)C(=O)N[C@@H](CCCNC(=N)N)C(=O)N2 (cyclo(RRRCKKSIPPICF); disulfide 4-12) | 58.8
* CC[C@H](C)[C@@H]1NC(=O)[C@@H]2CCCN2C(=O)[C@@H]2CCCN2C(=O)[C@H]([C@@H](C)CC)NC(=O)[C@H](CO)NC(=O)[C@H](CCCCN)NC(=O)[C@H](CCCCN)NC(=O)[C@@H](NC(=O)[C@H](CCCNC(=N)N)NC(=O)[C@H](CCCNC(=N)N)NC(=O)[C@@H](N)CCCNC(=N)N)CSSC[C@@H](C(=O)N[C@@H](Cc2ccccc2)C(N)=O)NC1=O (H-RRRCKKSIPPICF-NH2; disulfide 4-12) | 68.3
* CC[C@H](C)[C@@H]1NC(=O)[C@@H]2CCCN2C(=O)[C@@H]2CCCN2C(=O)[C@H]([C@@H](C)CC)NC(=O)[C@H](CO)NC(=O)[C@H](CCCCN)NC(=O)[C@H](CCCCN)NC(=O)[C@@H](NC(=O)[C@H](CCCNC(=N)N)NC(=O)[C@@H](N)CCCCN)CSSC[C@@H](C(=O)N[C@@H](Cc2ccccc2)C(N)=O)NC1=O (H-KRCKKSIPPICF-NH2; disulfide 3-11) | 50.4

Turning now to a further compound:
Exercise: For "CC[C@H](C)[C@@H]1NC(=O)[C@@H]2CCCN2C(=O)[C@@H]2CCCN2C(=O)[C@H]([C@@H](C)CC)NC(=O)[C@H](CO)NC(=O)[C@H](CCCCN)NC(=O)[C@H]([C@H](C)O)NC(=O)[C@@H]2CSSC[C@H](NC1=O)C(=O)N[C@@H](Cc1ccccc1)C(=O)N1CCC[C@H]1C(=O)N[C@H](C(=O)O)CC(=O)NC(=N)NCCC[C@@H](C(N)=O)C(=O)N2" , write its inhibition.
Solution: 98.4
